# ASSAYED_TARGET: Gag-Pol polyprotein (Human immunodeficiency virus type 1 group M subtype B (isolate HXB2))
# PROCEDURE_SUMMARY: HIV-1 RT RNase H inhibitor potency, dose response, biochemical, probe assessment (AID 652)
# MEASUREMENT_CONTEXT: HIV-1 RT RNase H enzymatic assay
Activity calls are given as the source filed them. The rule behind the calls is not given here.
Outcome field: choose from true (1) for active, false (0) for inactive

Previously resolved entries follow.
Fc1ccccc1CSc1nc2ncccc2[nH]1 | true (1)
C=CCSc1nc2c(cnn2-c2ccc(C)c(C)c2)c(=O)[nH]1 | true (1)
CC(C)Sc1nc(-c2cccs2)nc2c1c(=O)n(C)c(=O)n2C | true (1)
COc1ccc(C(=S)N(C)C)cc1OC | true (1)

Req: Test call for this compound, please: C1=C(c2ccc(-c3ccccc3)cc2)Nc2ncnn2C1c1ccco1 (configuration not stated)
Resp: true (1)

Req: Test call for this compound, please: `N#Cc1c(-c2cccnc2)c2c([nH]c1=S)CCCC2`
Resp: true (1)

Req: Test call for this compound, please: `COCCn1c(SCCN2CCOCC2)nc2c1c(=O)[nH]c(=O)n2C`
Resp: false (0)

###

# ASSAYED_TARGET: Gag-Pol polyprotein (Human immunodeficiency virus type 1 group M subtype B (isolate HXB2))
# PROCEDURE_SUMMARY: HIV-1 RT RNase H inhibitor potency, dose response, biochemical, probe assessment (AID 652)
# MEASUREMENT_CONTEXT: HIV-1 RT RNase H enzymatic assay, inhibition, at 50 µM, stronger effect = higher value
Categorized via inhibition: 1: < 80%; 2: ≥ 80% and < 90%; 3: ≥ 90%

c1csc(-c2nn3c(C4COc5ccccc5O4)nnc3s2)c1 (stereo unspecified) | 3
Cc1ccc(-n2c(N)c(C(=O)N3CCN(C)CC3)sc2=S)cc1 | 1

Req: Input `CC(C)c1ccc2oc(-c3ccc(NC(=O)c4ncn[nH]4)cc3)nc2c1` ; output its category
Resp: 3

Req: Input `O=C1C=Cc2ccccc2C1=O` ; output its category
Resp: 3

Req: Input `COc1ccc(CCNC(=O)c2c(O)c3cccc4c3n(c2=O)CC4)cc1` ; output its category
Resp: 1

Req: Input `C=CCc1c(C)[nH]c(=S)c(C#N)c1C` ; output its category
Resp: 1

Req: Input `CCOC(=O)c1sc(NC(=O)CSc2n[nH]c(-c3ccccc3)n2)c(C#N)c1C` ; output its category
Resp: 3

Req: Input CSc1ccc(C2C(C#N)=C(N)Oc3c2ccc(=O)c2c(C)oc(C)c32)cc1 (stereo unspecified) ; output its category
Resp: 1

Req: Input `COc1ccc(CC(=O)Nc2ccc(-c3noc(-c4cccc(OC)c4)n3)cc2)cc1` ; output its category
Resp: 2

Req: Input `CN(C)c1cccc(C(=O)Nc2cccc(F)c2)c1` ; output its category
Resp: 1

Req: Input `Cc1ccc(-n2c(N)c(C(N)=O)sc2=S)cc1` ; output its category
Resp: 2

Req: Input `Nc1c(C(=O)NCc2cccnc2)sc(=S)n1-c1ccccc1` ; output its category
Resp: 1

Req: Input `C=CCSc1nc2c(c(=O)[nH]c(=O)n2C)n1CC` ; output its category
Resp: 1

Req: Input `O=c1c2ccccc2[se]n1-c1ccccc1` ; output its category
Resp: 2

Req: Input `CCCCn1c(SCC(=O)OCC)nc2c1c(=O)[nH]c(=O)n2C` ; output its category
Resp: 1

Req: Input `O=c1c(O)c(-c2ccc(O)cc2O)oc2cc(O)cc(O)c12` ; output its category
Resp: 3

Req: Input `Cc1cc(C)n2c(=S)[nH]nc2n1` ; output its category
Resp: 1

Req: Input `Fc1ccc(-c2nnc3sc(-c4ccc5c(c4)OCO5)nn23)cc1` ; output its category
Resp: 1

Req: Input COc1ccc(N2CSC3=C(C#N)C(c4cc(OC)ccc4OC)CC(=O)N3C2)c(OC)c1 (stereo unspecified) ; output its category
Resp: 3

Req: Input CC(C)c1ccc(C2CC(=O)N3CN(C)CSC3=C2C#N)cc1 (stereo unspecified) ; output its category
Resp: 2

Req: Input `O=C(CCSCCC(=O)NCc1ccco1)NCc1ccco1` ; output its category
Resp: 3

Req: Input `C=CCn1c(SCC(=O)NC(=O)NCc2ccco2)nc2sc(C)c(C)c2c1=O` ; output its category
Resp: 2

Req: Input `COc1ccc(-c2nsc(SCC(=O)Nc3cc(C)on3)n2)cc1` ; output its category
Resp: 3

Req: Input `Cc1ccc(-n2c(N)c(C(=O)N3CCOCC3)sc2=S)cc1` ; output its category
Resp: 1
